Reference source: PubChem BioAssay

Assay: probe aWnt5a binding to arrayed compounds – biochemical, biotinylated probe, 635/667 nm fluorescence, primary screen (AID 1113);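 note: score merges 667 nm fluorescence intensity with signal-to-noise per printed feature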
Conditions: small-molecule microarray, higher = more signal
quantity name: composite z-score
The response must contain the number and no unit.

Examples with answers:
C=CC[C@@]1(C(=O)NCCCOC)N=C(c2ccc(OCCCO)cc2)O[C@@H]1c1ccccc1 = 0.155
COc1ccc([Si](C)(C)[C@@H]2[C@@H](CC(=O)N3Cc4ccccc4C[C@H]3CO)O[C@]3(C(=O)N(Cc4ccc(N5C(=O)c6cccc7cccc5c67)cc4)c4ccccc43)[C@H]2C)cc1 = -0.0585

Measured composite z-score, O=C(NCc1ccc(F)cc1)[C@H]1C[C@H]2C(=O)NCC(=O)N2[C@H]1c1ccc(O)cc1 : -0.0684

Input COCCOC(=O)N1C(=O)[C@@]2(c3ccccc31)[C@H](C(=O)NC[C@H](O)c1ccccc1)[C@H]1C(=O)O[C@H](c3ccccc3)[C@H](c3ccccc3)N1[C@@H]2c1ccc(O)cc1 . Output composite z-score: -0.0072

Field composite z-score (entry CC(C)C(CO)N1C(=O)[C@@H]2C3C(=O)OCCC/C=C\[C@H]3OC23C=CCN(c2ccc4ccccc4c2)C(=O)[C@@H]13 (some centres undefined) ) reads -0.0405

Query CC(CO)N1C(=O)[C@@H]2[C@H]3C(=O)OCC=C[C@H]3OC23C=CCN(Cn2nnc4ccccc42)C(=O)[C@@H]13 (some centres undefined) yields composite z-score of -0.13

The compound listed as O=C(NCCN1CCOCC1)[C@@H]1c2ccccc2C(=O)N(C2Cc3ccccc3C2)[C@H]1c1ccc(CO)cc1 has a reported composite z-score of -0.23

====

Biological target: NADPH oxidase 5 (Homo sapiens)
Assay: compounds shifting NOX5 Amplex Red fluorescence – cell-based, HEK293-NOX5, NOX inhibitor project, primary screen (AID 1161)
Conditions: HEK293-NOX5, ionomycin, 45 min, higher = more signal
Listed below: z-score values for each entry.
Kindly provide the number alone.

# example entries with known answers
[N-]=[N+]=Nc1ccccc1[C@@H]1OC(c2ccc(OCCCO)cc2)=N[C@]1(Cc1ccccc1)C(=O)O = -0.586
CN(C)C(=O)[C@]1(CCC(=O)OC(C)(C)C)N=C(c2ccc(OCCCO)cc2)O[C@@H]1c1ccccc1CN=[N+]=[N-] = 1.19
O=C1C2C=CC(C(O)c3cccc(O)c3)N(Nc3ccc([N+](=O)[O-])cc3)C2C(=O)N1c1ccccc1 (configuration not stated) = -4.26
COCCOC(=O)N1C(=O)[C@@]2(c3cc(C#CCCO)ccc31)[C@H](c1ccc(OCCO)cc1)N1[C@H](c3ccccc3)[C@H](c3ccccc3)OC(=O)[C@H]1[C@@H]2C(=O)Nc1nc2ccccc2s1 = 1.43
C=C(/C(=C/C[C@H](OC(=O)c1ccncc1)c1ccc(CO)o1)c1cnc2ccccc2c1)C(C)C = -0.415

Measured z-score, C=CC[C@@H](OC(=O)Nc1ccc(OC)cc1)c1ccc(O)c(F)c1 : -3.48

What the record says about C=CCN1C(=O)[C@]2(CCC(=O)OC(C)(C)C)N=C(c3ccc(OCCCO)cc3)O[C@@H]2c2ccccc21 : z-score is -0.299

====

Test: growth effects on S. cerevisiae YJM789 – YJM789 clinical isolate, OD600, 24 h, basal, primary screen (AID 1089);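 note: growth of clinical yeast isolate S. cerevisiae YJM 789 seeded 1000 cells per well; test concentration not given here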
Conditions: higher = more signal, called active from +8 up or from −8 down
Kind request: treat 0.4 as inclusive, so z-score at 0.4 or higher is true (1), anything lower is false (0).

Check out these entries, answers already filled in.
Oc1ccc2cc[n+](Cc3cc4c(cc3Br)OCO4)cc2c1 = true (1)
COc1cc(C(O)C2C=CC3C(=O)N(C)C(=O)C3N2Nc2ccccc2)cc(OC)c1OC (configuration not stated) = false (0)
Cc1ccc(S[C@]2(C(=O)NCc3ccccc3)CC(=O)N(C3CCCCC3)[C@@H]2c2ccc(CO)cc2I)cc1 = false (0)
CC(C)c1ccc(NN2C(C(O)c3ccc(C#N)cc3)C=CC3C(=O)N(c4ccccc4)C(=O)C32)cc1 (configuration not stated) = true (1)
C=C(COC)/C(=C/C[C@H](OC(=O)c1ccncc1)c1ccccc1OCCO)c1cc(C(=O)OC)ccc1OC = false (0)
O=C1OCCC/C=C\[C@H]2OC34C=CCN(c5ccc6ccccc6c5)C(=O)[C@H]3N(CCO)C(=O)[C@@H]4C12 (some centres not stated) = false (0)
CCCC=C(CCC)[C@@H](NP(=O)(c1ccccc1)c1ccccc1)c1ccc(-c2ccccc2)cc1 = true (1)
O=C(NCc1ccc(F)cc1)[C@H]1C[C@H]2C(=O)NCC(=O)N2[C@H]1c1ccc(O)cc1 = true (1)

Check this molecule for z-score at or above 0.4: COC(=O)[C@@H]1N=C(c2ccc(OCCCO)cc2)O[C@@H]1C
true (1)

Hi team, for CCOC(=O)C[C@H]1[C@H](OC(=O)c2ccc(C(=O)c3ccccc3)cc2)[C@@H](NC(=O)C2CCCCC2)c2cc(OCCCO)ccc2N1C(=O)c1ccc2ccccc2n1 , is the recorded z-score at or above 0.4?
false (0)

Item OCCCC1=CC(c2ccc(CN3CCCC3)cc2)N(Cc2cc3c(cc2Br)OCO3)CC1 (configuration not stated) with z-score of 0.4 or above?
false (0)

====

Target: Streptavidin (Streptomyces avidinii) (UniProt P22629)
Sequence (P22629 whole entry, looked up): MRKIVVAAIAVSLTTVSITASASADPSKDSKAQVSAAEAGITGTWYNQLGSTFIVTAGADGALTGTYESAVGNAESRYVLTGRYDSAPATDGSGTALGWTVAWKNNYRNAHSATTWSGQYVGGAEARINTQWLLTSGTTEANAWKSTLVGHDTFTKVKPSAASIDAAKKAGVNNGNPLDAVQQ
Assay: compounds binding control protein streptavidin – biophysical, small-molecule microarray, 635/667 nm fluorescence, artefact control for SMM compound annotation, primary screen (AID 1147);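 note: signal reflects streptavidin binding to arrayed compounds as a control protein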
Settings: higher = more signal
composite z-score listing for selected compounds.

Guide cases for composite z-score, answers given:
CC(CO)N1C(=O)[C@]2(C)C3C(=O)OCCC/C=C\[C@H]3OC23C=CCN(c2ccc(Cl)cc2)C(=O)[C@@H]13 (stereo partly drawn) = -0.741
CCCC#C[Si](O[C@H](CC)c1cn([C@H](C)c2ccccc2)nn1)(C(C)C)C(C)C = -0.121

Let us examine a further case.
Result for COCCOC(=O)N1C(=O)[C@@]2(c3cc(C#CC4(O)CCCCCC4)ccc31)[C@H](c1ccc(O)cc1)N1[C@H](c3ccccc3)[C@H](c3ccccc3)OC(=O)[C@H]1[C@@H]2C(=O)N1CCN(c2ncccn2)CC1 , tested on Streptavidin (Streptomyces avidinii) (UniProt P22629), composite z-score: 1.33

====

Assay: binders from COS7 lysate, DM2A8 probe, primary screen, torsin A project, cell lysate, small-molecule microarray, fluorescence 635/667 (AID 1065)
Details: higher = more signal, COS7 lysate expressing mutant human TOR1A
quantity name: composite z-score
Write the number on its own, no unit after it.

Recorded results for 5 molecules are shown here.
CCCC=C(CCC)[C@@H](NP(=O)(c1ccccc1)c1ccccc1)c1ccc(-c2ccccc2)cc1 = 0.887
COc1ccc(CCNC(=O)[C@@H]2c3ccccc3C(=O)N(C3CCCCC3)[C@H]2c2ccc(CO)cc2)cc1 = 1.3
COC(=O)C1=CC(CCCO)=CC(c2ccc(CN3CCCC3)cc2)N(Cc2cccc(OC(F)(F)F)c2)C=C1C(=O)OC (centres undefined) = -0.185
CCCNC(=O)[C@@]1(Sc2ccc(C)cc2)CC(=O)N(C2Cc3ccccc3C2)[C@@H]1c1ccc(CO)cc1I = 0.31
C=CCNC(=O)[C@@H]1[C@H]2C(=O)O[C@H](c3ccccc3)[C@H](c3ccccc3)N2[C@H](c2ccc(O)cc2)[C@@]12C(=O)N(C(=O)OCCOC)c1ccc(C#CC3=CCCCC3)cc12 = 0.467

Entry C=CCNC(=O)[C@@H]1[C@H]2C(=O)O[C@H](c3ccccc3)[C@H](c3ccccc3)N2[C@H](c2ccccc2OCCO)[C@@]12C(=O)Nc1ccc(C#CCCO)cc12 — recorded composite z-score = 0.143

response.value for COCCOC(=O)N1C(=O)[C@@]2(c3cc(C#CCNC(N)=O)ccc31)[C@H](C(N)=O)[C@H]1C(=O)O[C@H](c3ccccc3)[C@H](c3ccccc3)N1[C@@H]2c1ccccc1OCCO (field: composite z-score) = 0.176

Noted for C=C(COC)C(=O)CC[C@@H](OC(C)=O)c1cccc(OCCO)c1 : its composite z-score reads -0.489

Lab note: COc1ccc(CCNC(=O)[C@@]2(Cc3ccccc3I)c3ccccc3C(=O)N(C3CCCCC3)[C@H]2c2ccc(CO)cc2)cc1 gave composite z-score of -0.256

Record COC(=O)[C@@H]1N=C(c2ccc(OCCCO)cc2)O[C@@H]1c1ccccc1 . Reported composite z-score: -0.0336

====

Molecular target: NADPH oxidase 4 (Homo sapiens) (UniProt Q9NPH5)
Sequence (Q9NPH5 whole entry, looked up): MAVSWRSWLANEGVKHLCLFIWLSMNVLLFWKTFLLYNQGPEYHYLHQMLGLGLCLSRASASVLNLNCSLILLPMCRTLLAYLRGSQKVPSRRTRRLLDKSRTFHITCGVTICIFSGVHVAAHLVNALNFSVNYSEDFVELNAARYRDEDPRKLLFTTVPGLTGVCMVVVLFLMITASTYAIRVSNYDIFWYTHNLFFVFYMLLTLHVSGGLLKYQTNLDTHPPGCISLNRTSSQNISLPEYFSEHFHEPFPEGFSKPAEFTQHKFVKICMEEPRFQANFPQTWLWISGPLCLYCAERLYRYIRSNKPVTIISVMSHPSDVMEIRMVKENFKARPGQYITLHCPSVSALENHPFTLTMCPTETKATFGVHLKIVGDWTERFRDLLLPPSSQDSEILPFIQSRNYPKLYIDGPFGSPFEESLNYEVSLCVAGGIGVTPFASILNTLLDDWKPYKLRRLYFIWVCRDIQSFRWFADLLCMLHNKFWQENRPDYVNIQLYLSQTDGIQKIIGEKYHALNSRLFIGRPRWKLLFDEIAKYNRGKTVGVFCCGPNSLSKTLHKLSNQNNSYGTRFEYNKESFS
Experiment: compounds shifting NOX4 Amplex Red fluorescence – cell-based, HEK293-NOX4, tetracycline-induced, NOX inhibitor project, primary screen (AID 1160)
Conditions: HEK293-NOX4, Amplex Red H2O2 fluorescence, 45 min; higher = more signal, called active from +8 up or from −8 down
quantity name: z-score
Just the number, please, no unit after it.

Examples with their reported z-score follow.
CC1=C2[C@@H](CCc3ccccc3)OB(O)C[C@@H]2[C@@H]2C(=O)N(Cc3ccccc3)C(=O)[C@@H]2C1 = 0.167
C=CCN1C(=O)[C@]2(CCS(=O)(=O)c3ccccc3)N=C(c3ccc(OCCCO)cc3)O[C@@H]2c2ccccc21 = 0.835

Below: the item to evaluate.
Short answer for CCCCC(CC)C(O)C1C=CC2C(=O)N(c3ccccc3)C(=O)C2N1Nc1ccc(C#N)cc1 (configuration not stated) : z-score was -2.2
